# Protocol summary: NCI Yeast Anticancer Drug Screen. Data for the sgs1 mgt1 strain (AID 161);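 further: 0% = growth of cultures given vehicle only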
# Condition: S. cerevisiae sgs1 mgt1 strain, at 50.0 µM
Compounds without any hit were thinned out: in the full panel of roughly 79,000, 15% have a hit. Activity calls are given as the source filed them. No stated cut-off is given here; in the data, active means growth inhibition above about 70%; inactive means the rest. *1 amine or outer side, *2 acyl side, *3 side chain or, on linkers, in order; H or OH if unused. Where a SMILES comes first, the peptide text is derived from it. Bridges are numbered along the chain shown (N, C = ends). [ ]: non-standard residue; d: D form. The star is where a group is joined. ξ: configuration not given here. ξOrn(4,5-diOH) = O=C(C(CC(O)C(O)N[*:3])N[*:1])[*:2]; ξhTyr(βξ-OH,γξ-OH) = NC(C(=O)O)C(O)C(O)c1ccc(O)cc1; ξPro(3ξ-OH,4ξ-Me) = CC1CNC(C(=O)O)C1O; X1 = CCCCC/C=C/C/C=C\CCCCCCCC(=O)*; Hyp = O=C(O)[CH]1C[CH](O)CN1
Thanks in advance; please answer with one of these: active, inactive

Some solved cases for reference:
>>> assigned_class("CCOP(=O)(OCC)C(NC(=O)OCC(Cl)(Cl)Cl)n1nnc(C(=O)OC)c1C(=O)OC (stereo not drawn)")
"inactive"
>>> assigned_class("N=c1c2ccccc2cc2c3ccccc3ccn12")
"active"
>>> assigned_class("CC(C)/C=C1\\CCOC1=O")
"inactive"
>>> assigned_class("COc1ccc2nc3cc(Cl)ccc3c(NCCCCCCNc3c4ccc(Cl)cc4nc4ccc(OC)nc34)c2n1")
"active"
>>> assigned_class("CC1=C(C(=O)Nc2ccccc2)C(c2cc(Cl)cc(Cl)c2)C(C(=O)Nc2ccccc2)=C(C)N1")
"active"

[ask] Dear all, I need the recorded test outcome for COc1ccc(OCC(O)CN2CCN(c3cccc(Cl)c3)CC2)cc1 (stereo not drawn) , thank you.
[reply] active

[ask] For "Cc1ccc(Cl)cc1NN" , what call appears in the results of this test?
[reply] inactive

[ask] Name the outcome recorded for CCCCC/C=C/C/C=C\CCCCCCCC(=O)NC1CC(O)C(O)NC(=O)C2C(O)C(C)CN2C(=O)C(C(C)O)NC(=O)C(C(O)C(O)c2ccc(O)cc2)NC(=O)C2CC(O)CN2C(=O)C(C(C)O)NC1=O (stereo not drawn) (X1-[ξOrn(4,5-diOH)]T[Hyp][ξhTyr(βξ-OH,γξ-OH)]T[ξPro(3ξ-OH,4ξ-Me)]; lactam 1-C; configuration not given here) in the assay.
[reply] active

* * *

# Protocol summary: NCI Yeast Anticancer Drug Screen. Data for the sgs1 mgt1 strain (AID 161);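 further: 0% = growth of cultures given vehicle only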
# Condition: S. cerevisiae sgs1 mgt1 strain, at 5.0 µM (retest, dose inferred, filed as 0.5), active compounds read high
About 79,000 compounds went through this panel and 15% of them were active in at least one assay; those are over-represented in the sample as a whole.
Readout name: growth inhibition (%)
Number only, in %; omit the unit.

Sample answers from the record:
>>> numeric_value("C=C1CC[C@@H]2C(C)(C)C(O)CCC2(C)C1COc1ccc2ccc(=O)oc2c1 (some centres undefined)")
-1
>>> numeric_value("Oc1ccc(-c2nnc(-c3ccccc3)nn2)cc1")
-66
>>> numeric_value("CCOC(=O)/C(=C\\c1cccc(OC)c1)C(C)=O")
-11
>>> numeric_value("CC(C)[CH2][Ge]([Cl])([Cl])[Cl]")
3
>>> numeric_value("COC1CC(OC(=O)c2ccccc2)C2OC(c3ccccc3)OCC2O1 (centres undefined)")
1

Short answer for "CCn1c2ccccc2c2ccc(C3C(C(=O)OC)=C(C)NC(C)=C3C(=O)OC)cc21" : growth inhibition was -2

Data point: "ClCc1ccc(OCc2ccccc2)c(OCc2ccccc2)c1" ; growth inhibition = 4

growth inhibition reported for this molecule "O=C(C(=O)n1ncc(Cl)c(Cl)c1=O)n1ncc(Cl)c(Cl)c1=O" : 5

Recorded result, "O=C1C=CC(=C(c2ccccc2)c2ccc(O)cc2)C=C1" , growth inhibition: -5

"O=C(C(/C=N\C(=S)Nc1ccccc1Cl)=C(/O)c1ccccc1)c1ccccc1" has a reported growth inhibition of 55

Sample "C(CCCCCN1CCCCC1)CCCCN1CCCCC1" ; growth inhibition observed: 3

Per the records, this molecule ( "Oc1cccc(/C=C/c2ccncc2)c1" ) has growth inhibition equal to -3

Documented growth inhibition of COc1ccc(C2C3=C(CC(C)(C)CC3=O)Oc3cc4c(cc32)OCO4)c(OC)c1 (centres undefined) : 11

According to the records, this molecule "CCCCNCc1c(O)ccc2ccccc12" displays growth inhibition of 17

* * *

Entries annotated with measured growth inhibition
# Protocol summary: NCI Yeast Anticancer Drug Screen. Data for the mec2-1 strain (AID 157)
# Condition: S. cerevisiae mec2-1 strain, at 50.0 µM (retest, dose inferred, filed as 5.0), active compounds read high
# Experimental: Growth inhibition of yeast strains with defined genetic alterations is measured as a screen for potential anti-cancer activity. Selected strains with alterations in DNA damage repair or cell cycle control were exposed to compounds and growth inhibition was measured relative to vehicle treated controls. The strain used in this assay is mec2-1
Compounds without any hit were thinned out: in the full panel of roughly 79,000, 15% have a hit. Calls of active or inactive are those of the source. Rule as the data show it: active = growth inhibition above about 70%; inactive = the rest.

Look over these answered cases.
>>> result("Cc1ccc(C(C)(C)C)c(O)c1O")
"98% (active)"
>>> result("CC(C)CC(CC(C)C)NCC(C)OC(=O)C(c1ccccc1)c1ccccc1 (stereo not given)")
"78% (active)"
>>> result("CN/N=C(\\C)C(CN1CCCCC1)C(C1=C(O)c2ccccc2OC1)c1ccccc1 (stereo not given)")
"25% (inactive)"
>>> result("O=C(Nc1nc2c(ncn2C2CC(OC(=O)c3ccccc3)C(COC(=O)c3ccccc3)O2)c(=O)[nH]1)c1ccccc1 (stereo not given)")
"12% (inactive)"

Sure, the documented growth inhibition for CC(=O)OC1=CC(n2cc(F)c(=O)[nH]c2=O)OC(C)C1=O (stereo not given) is 85% (active)

* * *

# Protocol summary: NCI Yeast Anticancer Drug Screen. Data for the cln2 rad14 strain (AID 165);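 further: 0% = growth equal to vehicle treated cultures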
# Condition: S. cerevisiae cln2 rad14 strain, at 50.0 µM, active compounds read high
About 79,000 compounds went through this panel and 15% of them were active in at least one assay; those are over-represented in the sample as a whole.
The threshold is inclusive: growth inhibition of exactly 90% counts as satisfied; values below receive not satisfied.

The examples below pair each entry with its known result.
>>> assigned_class("CCCCCC(C)NCC(O)Cc1ccc(OCCCC)cc1 (stereo unspecified)")
"satisfied"
>>> assigned_class("C/C=C(\\C)CC/C=C/CO[Si](C)(C)C(C)(C)C")
"not satisfied"
>>> assigned_class("OCCN1CCN(CCCN2c3cc(Cl)ccc3Sc3ccsc32)CC1")
"satisfied"
>>> assigned_class("COc1ccc(C(=O)C2C(=O)C(=O)OC2C2OC(=O)C(=O)C2C(=O)c2ccc(OC)cc2)cc1 (stereo unspecified)")
"not satisfied"
>>> assigned_class("COc1cccc2c1C(=O)c1c(O)c3c(c(O)c1C2=O)C[C@@](O)(C(=O)CO)C[C@@H]3OC1CC(N)CC(C)O1 (stereo partly specified)")
"not satisfied"

For the next question, use this molecule.
[ask] Tell me whether growth inhibition is at least 90% here: CN(/N=C/C(O)C(O)C(O)CO)c1ccccc1 (stereo unspecified)
[reply] satisfied

* * *

Each entry below lists one item and its recorded growth inhibition value.
# Protocol summary: NCI Yeast Anticancer Drug Screen. Data for the mlh1 rad18 strain (AID 175)
# Condition: S. cerevisiae mlh1 rad18 strain growth inhibition; at 50.0 µM; active compounds read high
Compounds without any hit were thinned out: in the full panel of roughly 79,000, 15% have a hit.
Use % as the unit, but write only the number.

growth inhibition in this record for "COC1=CC(=O)[C@H]2CC(C)=CC[C@]2(C)C1=O" : 15.1

"COc1c(C(=O)/C(=N/Nc2ccccc2)C(C)=O)c(O)c(OC)c2occc12" has a reported growth inhibition of 68.8

Noted for CCOC(=O)C1=C(c2ccccc2)OC(N)=C(C#N)C1c1ccc(C)cc1 (stereo unspecified) : its growth inhibition reads 85.9

Quick note, growth inhibition for CC(=O)C(C(=N)C#N)C(=O)Nc1ccccc1 (stereo unspecified) landed at -15.2

* * *

# Protocol summary: NCI Yeast Anticancer Drug Screen. Data for the mlh1 rad18 strain (AID 175)
# Condition: S. cerevisiae mlh1 rad18 strain growth inhibition; at 50.0 µM
# Method: Growth inhibition of yeast strains with defined genetic alterations is measured as a screen for potential anti-cancer activity. Selected strains with alterations in DNA damage repair or cell cycle control were exposed to compounds and growth inhibition was measured relative to vehicle treated controls. The strain used in this assay is mlh1 rad18
This is part of a sample that, as a whole, favours compounds with a hit. Of some 79,000 tested, about 15% had one in any assay. Activity calls are given as the source filed them. Rule as the data show it: active = growth inhibition above about 70%; inactive = the rest.
The reply should name one outcome from active, inactive

Solved cases below.
>>> assigned_class("CCCCCCSc1nc2ccc(N=Cc3ccccc3O)cc2s1")
"active"
>>> assigned_class("COC1/C=C\\OC2(C)Oc3c(C)c(O)c4c(O)c(c5[nH]c(-c6ccccc6)nc5c4c3C2=O)NC(=O)/C(C)=C\\C=C\\C(C)C(O)C(C)C(O)C(C)C(OC(C)=O)C1C (stereo not given)")
"active"
>>> assigned_class("Oc1ccc(Cc2cc(Cl)cc(Cl)c2O)cc1Cl")
"active"
>>> assigned_class("C/C(=N\\NC(=S)N1CCCCCC1)c1ccccn1")
"active"
>>> assigned_class("CC(C)c1ccc2c(c1)CCC1C(C)(C(=O)O)CCCC21C (stereo not given)")
"active"
>>> assigned_class("C=C1CC[C@H]2C(C)=CC[C@@H]3[C@H](OC(=O)[C@H]3CN3CCN(c4ccc(C)c([N+](=O)[O-])c4)CC3)[C@@H]12")
"inactive"
>>> assigned_class("CCCCCCCCCCCCCCCC[NH][Ge]([NH]CCCCCCCCCCCCCCCC)([NH]CCCCCCCCCCCCCCCC)[NH]CCCCCCCCCCCCCCCC")
"active"
>>> assigned_class("COc1cc([C@H]2c3c(cc(OC)c(OC)c3OC)CC3COC(=O)[C@@H]32)cc2c1OCO2 (stereo not given in full)")
"active"

[ask] Which outcome was assigned to "Oc1cccc2ccc(/C=C/c3ccccn3)nc12" in this test?
[reply] active

[ask] Each molecule tested received a call. Report the one for NC(=O)NOCC1NC(=O)NC1=O (stereo not given) .
[reply] inactive
